target: T1, Human CD3εδ Fc heterodimer (Hu CD3ε Fc + CD3δ Fc-HIS) (human, UniProt P07766 22-126; P04234 22-100); assay: BLI (Octet), Fab monovalent, pH 7.4
T1 construct: range 22-126;range 22-100; Made in HEK 293 cells with a heterologous signal peptide; also called Hu CD3εδ-Fc; CD3εδ Fc-HIS heterodimer; not shown: Fc; Fc followed by HIS tag
T1 sequence (P07766 22-126, stated change not applied, form in doubt, chain 1 of 2): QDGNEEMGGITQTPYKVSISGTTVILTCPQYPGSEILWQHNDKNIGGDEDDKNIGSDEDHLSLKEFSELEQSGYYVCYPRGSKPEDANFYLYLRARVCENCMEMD
T1 sequence (P04234 22-100, stated change not applied, form in doubt, chain 2 of 2): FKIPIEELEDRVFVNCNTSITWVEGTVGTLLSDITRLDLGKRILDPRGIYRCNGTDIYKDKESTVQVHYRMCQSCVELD
READOUT NAME: Kd (nM)
Enter your answer as a number in nM; do not include the unit.

Antibody No. A003 (ADI-26913) Fab (Fab, V domains shown, Fab by papain digestion of the IgG1) VH: QVQLVQSGAEVKKPGASVKVSCKASGFNIKDYYMHWVRQAPGQRLEWMGWIDLENANTIYDAKFQGRVTITRDTSASTAYMELSSLRSEDTAVYYCARDQYGRYFYDVWGQGTLVTVSS VL: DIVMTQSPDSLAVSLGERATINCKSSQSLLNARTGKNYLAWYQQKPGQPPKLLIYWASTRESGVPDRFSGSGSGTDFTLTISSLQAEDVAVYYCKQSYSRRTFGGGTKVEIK | 35
Antibody No. V009 (ADI-70326) Fab (Fab, V domains shown, Fab by papain digestion of the IgG1) VH: QVQLVQSGAEVKKPGASVKVSCKASGFDIKDYYMHWVRQAPGQRLEWIGWIELENADTVYDAKFQGRVTITRDTSASTAYMELSSLRSEDTAVYYCARDAYGRYFYDVWGQGTLVTVSS VL: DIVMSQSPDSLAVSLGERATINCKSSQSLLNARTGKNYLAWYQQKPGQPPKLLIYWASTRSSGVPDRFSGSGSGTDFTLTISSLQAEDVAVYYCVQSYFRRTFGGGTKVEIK | 1.6
Antibody No. V002 (ADI-67445) Fab (Fab, V domains shown, Fab by papain digestion of the IgG1) VH: QVQLVQSGAEVKKPGASVKVSCKASGFNIKDYYMHWVRQAPGQRLEWMGWIDLENAETIYDAKFQDRVTITRDTSASTAYMELSSLRSEDTAVYYCARDAYGRYFYDEWGQGTLVTVSS VL: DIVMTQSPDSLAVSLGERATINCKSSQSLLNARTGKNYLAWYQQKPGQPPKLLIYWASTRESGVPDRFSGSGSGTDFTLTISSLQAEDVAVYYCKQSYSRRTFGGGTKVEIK | 13
Antibody No. V019 (ADI-76362) Fab (Fab, V domains shown, Fab by papain digestion of the IgG1) VH: QVQLVQSGAEVKKPGASVKVSCKASGFNIKDYYMHWVRQAPGQRLEWMGWIDLEEGDTIYDAKFQGRVTITRDTSASTAYMELSSLRSEDTAVYYCARDAYGRYFYDVWGQGTLVTVSS VL: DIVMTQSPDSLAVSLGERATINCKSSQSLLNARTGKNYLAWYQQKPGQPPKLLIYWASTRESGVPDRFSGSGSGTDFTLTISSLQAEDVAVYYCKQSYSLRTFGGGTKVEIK | 64

Could you now look at the following binder, please?
IN: Answer with reported Kd of Antibody No. V013 (ADI-70330) Fab (Fab, V domains shown, Fab by papain digestion of the IgG1) VH: QVQLVQSGAEVKKPGASVKVSCKASGFNIDDYYMHWVRQAPGQRLEWIGWIDLENANTVDDAKFQGRVTITRDTSASTAYMELSSLRSEDTAVYYCARDAYGRYFYDVWGQGTLVTVSS VL: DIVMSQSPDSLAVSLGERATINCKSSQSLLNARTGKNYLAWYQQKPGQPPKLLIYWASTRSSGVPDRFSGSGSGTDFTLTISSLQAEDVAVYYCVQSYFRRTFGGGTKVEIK
OUT: 2.4
